# SETTINGS: buffer; pH 7.4; 200.0 µM
READOUT_NAME: solubility kinetic

Inquiry: Report solubility kinetic for O=C(NC1CCOc2ccccc21)c1ccc(Cl)nc1 (centres undefined)
Reply text: > 43.3 µg/mL

Inquiry: Report solubility kinetic for CCC(C)NC(=O)C1CCC(=O)N1CCc1ccccc1 (centres undefined)
Reply text: > 43.3 µg/mL

Inquiry: Report solubility kinetic for Cn1c(=O)n(C)c2cc(S(=O)(=O)Nc3ccccc3C(=O)O)ccc21
Reply text: > 54.2 µg/mL

Inquiry: Report solubility kinetic for CC(C)(C)c1cc(NC(=O)Nc2ccccc2OC(F)(F)F)no1
Reply text: < 0.2 µg/mL

Inquiry: Report solubility kinetic for COC(=O)CCCC(=O)N1CCC(CCC(=O)NC2CC2)CC1
Reply text: > 48.7 µg/mL

Inquiry: Report solubility kinetic for CC1CCN(C(=O)COC(=O)c2cn(C)c3ccccc23)CC1
Reply text: > 47.2 µg/mL

Inquiry: Report solubility kinetic for Cc1ccc(CC2SC(N)=NC2=O)cc1 (centres undefined)
Reply text: > 33 µg/mL

Inquiry: Report solubility kinetic for O=C1CCN(C(=O)Cc2ccccc2[N+](=O)[O-])CC1
Reply text: > 39.3 µg/mL

Inquiry: Report solubility kinetic for COc1ccccc1-c1nc(C#N)c(NCCCn2ccnc2)o1
Reply text: > 48.5 µg/mL

Inquiry: Report solubility kinetic for CCOC(=O)c1cnc(-c2ccc(C(F)(F)F)cn2)[nH]c1=O
Reply text: 46.8 µg/mL

Inquiry: Report solubility kinetic for C=CCNC(=O)c1cc2c(=O)n3cccc(C)c3nc2s1
Reply text: 3.4 µg/mL

Inquiry: Report solubility kinetic for Cn1c(CC(=O)NNC(=O)c2ccccc2F)nc2ccccc21
Reply text: > 48.9 µg/mL

Inquiry: Report solubility kinetic for O=C(CSc1nnc2ccccn12)NC(=O)c1ccccc1
Reply text: > 46.9 µg/mL

Inquiry: Report solubility kinetic for C=CCn1cccc(C(=O)Nc2ccc(SC)cc2)c1=O
Reply text: 38.5 µg/mL

Inquiry: Report solubility kinetic for COc1cccc(C(=O)NCCCNC(=O)c2ccccn2)c1
Reply text: 43.3 µg/mL

Inquiry: Report solubility kinetic for O=C(NCc1ccc2c(c1)OCO2)C1CCCCC1
Reply text: > 39.2 µg/mL

Inquiry: Report solubility kinetic for CC1CCc2[nH]c3ccc(C(=O)O)cc3c2C1 (centres undefined)
Reply text: > 34.4 µg/mL

Inquiry: Report solubility kinetic for Cc1ccc(OCc2cc(C(=O)NC3CCOC3)no2)cc1C (centres undefined)
Reply text: 33.1 µg/mL

Inquiry: Report solubility kinetic for CNC(=O)COC(=O)CNC(=O)c1cc(Cl)cc([N+](=O)[O-])c1
Reply text: > 49.5 µg/mL

Inquiry: Report solubility kinetic for O=C(N/N=C\c1cccnc1)c1ccccc1O
Reply text: > 36.2 µg/mL

Inquiry: Report solubility kinetic for COC(=O)Nc1ccc(S(=O)(=O)N2CCCC(C(=O)NCC3CCCO3)C2)cc1 (centres undefined)
Reply text: > 63.8 µg/mL

Inquiry: Report solubility kinetic for O=C(CSc1nccc(=O)[nH]1)Nc1ccc(Oc2ccccc2)cc1
Reply text: 11.5 µg/mL

Inquiry: Report solubility kinetic for CC1(C)CC(=O)C2=C(C1)NC(=O)NC2c1ccc([N+](=O)[O-])cc1 (centres undefined)
Reply text: > 47.3 µg/mL

Inquiry: Report solubility kinetic for CN(c1ccccc1)S(=O)(=O)c1ccc(Cl)c(C(=O)NCc2ccco2)c1
Reply text: 47.2 µg/mL

Inquiry: Report solubility kinetic for CC1=C(C)CC(C(=O)NC2CCCC2)C(C(=O)O)C1 (centres undefined)
Reply text: > 39.8 µg/mL

Inquiry: Report solubility kinetic for CCc1nc(N2CCN(C(C)=O)CC2)c2c3c(sc2n1)CCCC3
Reply text: > 51.7 µg/mL

Inquiry: Report solubility kinetic for CCCCn1c(C)c(C(=O)OCC)c2c(CN3CCCC3)c(O)ccc21
Reply text: 53.1 µg/mL

Inquiry: Report solubility kinetic for CS(=O)(=O)N(CC(=O)NC1CCCCC1)c1cccc(F)c1
Reply text: 48.1 µg/mL

Inquiry: Report solubility kinetic for Cc1ccc(NC(=O)Cn2cc([N+](=O)[O-])nc2C)cc1C
Reply text: 14.8 µg/mL
